As shown below, each of these compounds has a reported composite z-score value.
STUDY_SYSTEM: Albumin (Bos taurus) (UniProt P02769)
Sequence (P02769 whole entry, looked up): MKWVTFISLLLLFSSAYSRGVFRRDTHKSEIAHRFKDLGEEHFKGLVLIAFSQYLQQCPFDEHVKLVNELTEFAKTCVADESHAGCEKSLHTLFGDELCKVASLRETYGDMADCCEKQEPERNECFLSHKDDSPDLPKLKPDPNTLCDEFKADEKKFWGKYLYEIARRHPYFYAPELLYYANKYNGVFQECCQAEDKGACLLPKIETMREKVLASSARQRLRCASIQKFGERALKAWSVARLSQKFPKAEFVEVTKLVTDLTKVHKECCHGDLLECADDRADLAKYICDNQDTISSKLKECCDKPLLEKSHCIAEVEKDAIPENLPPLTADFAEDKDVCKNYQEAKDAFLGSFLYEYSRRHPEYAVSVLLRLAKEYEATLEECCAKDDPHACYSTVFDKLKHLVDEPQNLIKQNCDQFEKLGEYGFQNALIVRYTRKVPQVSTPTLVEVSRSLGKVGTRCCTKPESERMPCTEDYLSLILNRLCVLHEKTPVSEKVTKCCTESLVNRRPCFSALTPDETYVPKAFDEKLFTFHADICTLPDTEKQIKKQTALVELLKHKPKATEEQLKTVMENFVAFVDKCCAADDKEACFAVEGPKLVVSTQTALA
METHOD_DESCRIPTION: bovine serum albumin binders on microarray, profiling panel, artefact control for SMM control protein annotation, biochemical, small-molecule microarray, Alexa647 label, 635/667 nm fluorescence (AID 1118);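 also: score merges 667 nm emission intensity and signal-to-noise per printed compound spot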
REPORTED_CONDITIONS: BSA-A647 binding, fluorescence 635 nm, higher = more signal

COMPOUND: CC(C)(C)N1CC=CC23O[C@@H]4C=CCOC(=O)[C@@H]4[C@H]2C(=O)N(CCCCCO)[C@@H]3C1=O (some centres not stated)
composite z-score: 0.485
//
COMPOUND: O=C1C[C@]2(c3ccc([N+](=O)[O-])cc3)C(=O)N(CC(F)(F)F)c3cc(CO)ccc3[C@H]2N1CC12CC3CC(CC(C3)C1)C2
composite z-score: -0.0746
//
COMPOUND: CCCCC=C[C@@H](NC(=O)c1cccs1)c1ccccc1
composite z-score: 0.84
//
COMPOUND: COC(=O)[C@@]1(Cc2ccc(F)cc2)[C@H]2c3cc(C(=O)N(C)C)n(CCc4ccccn4)c3C[C@H]2CN1C(=O)c1ccccc1
composite z-score: -0.0737
//
COMPOUND: C=CCC(OC(C)=O)[C@@H]1[C@@H](N(Cc2cc3ccccc3o2)C(=O)c2ccc(C)cc2)c2cc(OCCCO)ccc2N1C(=O)c1ccc2ccccc2c1 (some centres not stated)
composite z-score: 0.767
//
COMPOUND: C=CCOC(=O)[C@H]1[C@@H]2C(=O)O[C@@H](c3ccccc3)[C@@H](c3ccccc3)N2[C@@H](c2ccc(OCCOC(=O)[C@@H]3C[C@@H]4C(=O)N5CCC[C@H]5C(=O)N4[C@@H]3c3ccc(O)cc3)cc2)[C@]12C(=O)Nc1ccccc12
composite z-score: -0.854
//
COMPOUND: CC(C)Cc1ccc(CN2CC[C@@H](NS(=O)(=O)c3ccccc3)C2)cc1
composite z-score: -0.623
